- experimental_target: α4β2-subtype of nicotinic receptors (Rattus norvegicus, UniProt P09483+P12390)
- Sequence (P09483 31-630): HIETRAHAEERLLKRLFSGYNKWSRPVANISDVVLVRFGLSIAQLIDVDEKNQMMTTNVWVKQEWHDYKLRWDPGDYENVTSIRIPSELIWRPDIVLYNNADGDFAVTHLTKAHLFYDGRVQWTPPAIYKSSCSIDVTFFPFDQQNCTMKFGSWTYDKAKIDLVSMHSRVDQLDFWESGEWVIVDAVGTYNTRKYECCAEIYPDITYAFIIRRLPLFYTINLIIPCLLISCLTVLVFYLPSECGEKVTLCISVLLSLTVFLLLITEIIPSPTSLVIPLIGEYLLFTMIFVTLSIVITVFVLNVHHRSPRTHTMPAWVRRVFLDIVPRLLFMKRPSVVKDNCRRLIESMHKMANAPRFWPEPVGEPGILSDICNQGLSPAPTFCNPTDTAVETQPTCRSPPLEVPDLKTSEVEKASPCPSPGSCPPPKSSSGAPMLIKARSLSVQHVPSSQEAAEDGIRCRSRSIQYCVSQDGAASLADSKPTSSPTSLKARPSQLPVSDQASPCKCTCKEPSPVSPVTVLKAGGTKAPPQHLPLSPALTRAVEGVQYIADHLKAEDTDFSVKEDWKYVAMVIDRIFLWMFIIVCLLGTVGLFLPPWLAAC
- Sequence (P12390 25-500): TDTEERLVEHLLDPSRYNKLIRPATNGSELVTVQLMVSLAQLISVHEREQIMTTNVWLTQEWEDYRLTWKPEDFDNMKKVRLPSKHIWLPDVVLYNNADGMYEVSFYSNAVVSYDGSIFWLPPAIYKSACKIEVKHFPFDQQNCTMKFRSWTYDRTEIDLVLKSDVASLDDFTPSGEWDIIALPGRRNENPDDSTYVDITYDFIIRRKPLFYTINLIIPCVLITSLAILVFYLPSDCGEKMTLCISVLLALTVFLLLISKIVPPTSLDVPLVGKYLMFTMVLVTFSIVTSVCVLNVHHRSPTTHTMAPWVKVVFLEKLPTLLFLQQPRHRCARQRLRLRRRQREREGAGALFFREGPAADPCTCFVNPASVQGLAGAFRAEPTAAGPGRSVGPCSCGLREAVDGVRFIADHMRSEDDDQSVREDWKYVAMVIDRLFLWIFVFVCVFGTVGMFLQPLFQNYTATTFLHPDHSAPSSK
- assay_details: in vitro inhibition of 3H-cytisine binding
- conditions: radioligand 3H-cytisine; read-out: in vitro Inhibition of Binding (IC50) 3H-cytisine binding
experimental_readout: IC50 (µM)

>>> df
                    smiles_entry  experimental_readout  endpoint_value
0  C1=C(c2ccc3ccccc3c2)C2CCN1CC2                  IC50              10

###

- experimental_target: α4β2-subtype of nicotinic receptors (Rattus norvegicus, UniProt P09483+P12390)
- assay_details: in vitro inhibition of 3H-cytisine binding
pIC50: −log10 of the molar value.
experimental_readout: pIC50

In [3]: df
Out[3]:
                                   compound  endpoint_value
0  c1ccc2cc(C3CN4CCC3CC4)ccc2c1 (racemic) [Compound C1]            5.22
